Measured pA2, listed per entry.
# Assay info: Antagonistic Alpha-1 adrenergic receptor activity against phenylephrine-induced contraction of rabbit prostate
# Format: functional, Oryctolagus cuniculus
Measured metric: pA2

* COc1ccccc1N1CCN(CCC(Oc2ccc(C(=O)Nc3ccccc3OCCCC(=O)O)cc2)c2ccc(C)cc2)CC1 (stereo not drawn) | 7.8
* CCOc1ccccc1N1CCN(CCCOc2cc(C(=O)c3cn(CCCC(=O)O)c4ccccc34)ccc2OCc2ccc(C)cc2)CC1 | 7.5
* COc1ccccc1N1CCN(CCCOc2cc(C(=O)c3cn(CCCC(=O)O)c4ccccc34)ccc2OCc2ccc(C)cc2)CC1 | 7.7
* Cc1ccc(COc2ccc(C(=O)c3cn(CCCC(=O)O)c4ccccc34)cc2OCCCN2CCN(c3ccccc3OC(C)C)CC2)cc1 | 6.8
* COc1ccccc1N1CCN(CCCNc2cc(=O)n(C)c(=O)n2C)CC1 | 7.1
* CCc1ccc(COc2ccc(C(=O)c3cn(CCCC(=O)O)c4ccccc34)cc2OCCCN2CCN(c3ccccc3OC)CC2)cc1 | 6.6
* COc1ccccc1N1CCN(CCCOc2ccc(C(=O)c3cn(CCCC(=O)O)c4ccccc34)cc2OCc2ccccc2)CC1 | 7
* COc1ccccc1N1CCN(CCCOc2cc(C(=O)c3cn(CCCC(=O)O)c4ccccc34)ccc2OCc2ccccc2)CC1 | 7.8
